test method notes: growth inhibitors of tim10-1 mutant yeast, primary screen, luminescence, uHTS (AID 463190);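 further: mutant grown at 25 °C; 0% = DMSO wells with yeast and 100% = wells holding no yeast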
experimental context: S. cerevisiae tim10-1 ts strain growth, BacTiter-Glo, 24 h; at 20 µM; hits give high values
The campaign covered roughly 330,000 compounds. About 7,300 (2.2%) were called active. The list comes from a sample in which actives are over-represented; it also holds close analogues and randomly drawn compounds.
measured property: inhibition (%)

compound="Cc1ccc(C(=O)COC(=O)CCN2C(=O)C3C4CC(C(Br)C4Br)C3C2=O)cc1 (centres undefined)" measured_property=inhibition measured=7.92
compound=O=C(Oc1ccc([N+](=O)[O-])cc1)c1ccc(Cl)c(S(=O)(=O)N2CCCCC2)c1 measured_property=inhibition measured=38.7
compound=Cc1cc(C)c2c(n1)sc1c(=O)n(-c3ccccc3)c(=O)[nH]c12 measured_property=inhibition measured=4.48
compound=CCc1nc(C)cn1S(=O)(=O)c1cc(OC)c(C)cc1C measured_property=inhibition measured=14.4
compound=COc1ccc(/C=C2\SC(=S)N(CCC(=O)Nc3cccc(C(=O)O)c3)C2=O)cc1OC measured_property=inhibition measured=21.8
compound=CN(C)c1ccc(/C=C/C(=O)c2ccc(O)cc2)cc1[N+](=O)[O-] measured_property=inhibition measured=15.8
compound=Cc1[nH]c2ccc(C(=O)N3CCN(C)CC3)cc2c1C measured_property=inhibition measured=-12.6
compound="CC(C)OCC(O)CN1CCN(C(c2ccccc2)c2ccccc2)CC1 (centres undefined)" measured_property=inhibition measured=6.5
compound=COc1ccc(C(=O)Nc2ccc(-n3nncc3C(C)(C)C)cc2)cc1 measured_property=inhibition measured=44
compound=CC(C)c1nccn1S(=O)(=O)c1cc([N+](=O)[O-])ccc1Cl measured_property=inhibition measured=43.6
compound=COc1ccc(NC(=O)c2ccc(C#CC(C)(C)O)cc2)cc1 measured_property=inhibition measured=9.08
compound=CC(C)Cn1c(N)c(C(=O)NCc2cccs2)c2nc3ccccc3nc21 measured_property=inhibition measured=43.7
compound=COC(=O)c1ccccc1NS(=O)(=O)c1ccc2[nH]c(=O)[nH]c2c1 measured_property=inhibition measured=5.53
compound=O=C(/C=C/c1ccc(Cl)cc1Cl)c1cccnc1 measured_property=inhibition measured=25
compound=COc1ccc(OC)c(-c2c(=O)n(OCc3ccccc3Br)c3ccccc3[n+]2[O-])c1 measured_property=inhibition measured=47.1
compound="CCOC(=O)C1=C(C)N=c2s/c(=C\\C(=O)OC)c(=O)n2C1c1ccc(OC)cc1 (centres undefined)" measured_property=inhibition measured=42.2
compound=Cc1cc(OCCCC(=O)NCCN2C(=O)S/C(=C\c3cccnc3)C2=O)ccc1Cl measured_property=inhibition measured=19.9
compound="OC(CNCC1CCCO1)Cn1c2ccc(Br)cc2c2cc(Br)ccc21 (centres undefined)" measured_property=inhibition measured=45.7
compound=COc1cc(N2C(=O)CSC2=S)cc(OC)c1OC measured_property=inhibition measured=-10
compound="COc1ccccc1CC(NC(C)=O)C(=O)NC1CCN(C(=O)Nc2ccccc2Cl)CC1 (centres undefined)" measured_property=inhibition measured=12
compound="COCCOC(=O)C1=C(C)N=c2s/c(=C\\c3cccs3)c(=O)n2C1c1cccs1 (centres undefined)" measured_property=inhibition measured=15.4
compound=O=C(/C=C/c1ccc(Cl)c([N+](=O)[O-])c1)c1cccnc1 measured_property=inhibition measured=46.1
compound=O=C(O)c1n[nH]nc1-c1ccccc1 measured_property=inhibition measured=-4.76
compound=CCc1nc(C)cn1S(=O)(=O)c1cc([N+](=O)[O-])ccc1Cl measured_property=inhibition measured=53.6
compound=COc1ccc(C(=O)COC(=O)COc2ccc(C)c(C)c2)cc1 measured_property=inhibition measured=10.1
compound=COc1ccccc1N1CCN(C(=O)c2ccc(Cl)c(S(=O)(=O)N3CCCC3)c2)CC1 measured_property=inhibition measured=22
compound=CCc1nccn1S(=O)(=O)c1cccc([N+](=O)[O-])c1 measured_property=inhibition measured=-8.99
compound="CCOc1ccc(-n2c(SC(C)C(=O)OC)nc3c(c2=O)SCC3)cc1 (centres undefined)" measured_property=inhibition measured=10.7
compound=O=C1CCCc2c1[nH]c1ccc(Br)cc21 measured_property=inhibition measured=13.5
compound=CN1C(=O)C2(OCCCO2)c2cc(Cl)ccc21 measured_property=inhibition measured=-14.9
compound=O=C(/C=C/c1ccccc1)N/C(=C/c1ccccc1)C(=O)Nc1ccccc1O measured_property=inhibition measured=32.3
compound=O=C(CCCN1C(=O)/C(=C/c2ccccc2)SC1=S)Nc1ccc(O)cc1 measured_property=inhibition measured=40.5
compound=CCOC(=O)COn1c(=O)c(-c2ccc(OCC)cc2)[n+]([O-])c2ccccc21 measured_property=inhibition measured=31.6
compound=O=C1CSC(=S)N1c1ccc(Cl)c(Cl)c1 measured_property=inhibition measured=42
compound=CCN1C(=NCCc2cccnc2)N[C@@H](c2ccccc2)C(C(=O)OC)=C1C measured_property=inhibition measured=0.495
compound=O=C(/C=C/c1ccc(Cl)c([N+](=O)[O-])c1)c1ccc(O)cc1 measured_property=inhibition measured=41.3
compound=O=C(Cc1ncc(C(F)(F)F)cc1Cl)Nc1cccc(Br)c1 measured_property=inhibition measured=47.5
compound=CC(=O)c1ccc(Cc2ncc(C(F)(F)F)cc2Cl)s1 measured_property=inhibition measured=3.28
compound=CCOc1ccc(NC(=O)c2ccccc2NS(C)(=O)=O)cc1 measured_property=inhibition measured=-4.15
compound="CCCCN(C)CCNC(=O)C1CCCN(S(=O)(=O)c2cccc3nsnc23)C1 (centres undefined)" measured_property=inhibition measured=8.01
compound="O=C(CSc1ccc(-c2ccc(Br)cc2)nn1)NCC1CCCO1 (centres undefined)" measured_property=inhibition measured=17.5
compound=COc1ccc(S(=O)(=O)/N=C2\C=C(NS(=O)(=O)c3ccccc3)C(=O)c3ccccc32)cc1 measured_property=inhibition measured=31.1
compound=O=C1CSC(=S)N1c1ccc(O)cc1 measured_property=inhibition measured=-38.8
compound=O=C(Oc1c(-c2ccco2)oc2ccccc2c1=O)c1cccnc1 measured_property=inhibition measured=45.4
